Activity values for the molecules below.
System: Henosepilachna vigintioctopunctata
procedure summary: Antifeedant activity against Henosepilachna vigintioctopunctata in Solanum nigrum leaves assessed as mean leaf area fed at 10 ug/cm'2 by dual choice leaf disk bioassay (reference value: 0.78 +/- 0.04 to 0.99 +/- 0.17 cm'2)
Assay type: functional
test readout: Activity (cm2)

# molecule, experimental system, recorded measurement
measured = [
    ("COc1c2c(c(OC)c3c1C(=O)C1=C(C3=O)[C@@H](C)O[C@@H](C)C1)OCO2", "Henosepilachna vigintioctopunctata", 0.17),
    ("C/C=C(\\C)C(=O)O[C@H]1C[C@@H](OC(C)=O)[C@@]2(C(=O)OC)CO[C@H]3[C@@H](O)[C@@](C)([C@]45O[C@@]4(C)[C@H]4C[C@@H]5O[C@@H]5OC=C[C@@]54O)[C@H]4[C@]1(CO[C@]4(O)C(=O)OC)[C@@H]32", "Henosepilachna vigintioctopunctata", 0.05),
    ("Cc1cc(O)c2c(c1)C(=O)c1cc(O)cc(O)c1C2=O", "Henosepilachna vigintioctopunctata", 0.13),
]

src = ChEMBL document CHEMBL3045069
